So I've got a bunch of binders here, and I need their pKd values.
# Assayed target: T1, soluble human CD40 extracellular domain (human, UniProt P25942 21-193)
# T1 construct: Produced in house; also called hCD40; soluble hCD40 extracellular domain
# T1 sequence (P25942 21-193 limits assumed): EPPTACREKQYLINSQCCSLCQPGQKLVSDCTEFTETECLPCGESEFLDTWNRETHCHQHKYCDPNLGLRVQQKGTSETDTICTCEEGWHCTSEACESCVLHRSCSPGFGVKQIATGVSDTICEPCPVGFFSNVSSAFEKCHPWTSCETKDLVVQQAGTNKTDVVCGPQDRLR
# Protocol details: SPR, Ab captured from supernatant on protein A, hCD40 ECD analyte
The quantity pKd is defined as the negative base-10 logarithm of the molar concentration.

(Q) So what's the measured pKd for this one? M74 (HC-R67E / LC-R61Q) (antibody, human IgG1, kappa, V domains shown, IgG1-P238K; also called HC10/LC5) VH: QVQLVQSGAEVKKPGSSVKVSCKASGYAFTSYWMHWVRQAPGQGLEWMGQINPTTGRSQYNEKFKTEVTITADKSTSTAYMELSSLRSEDTAVYYCARWGLQPFAYWGQGTLVTVSS VL: DIQMTQSPSFLSASVGDRVTITCKASQDVSTAVAWYQQKPGKAPKLLIYSASYRYTGVPSQFSGSGSGTDFTLTISSLQPEDFATYYCQQHYSTPWTFGGGTKVEIKR
(A) 8.54

(Q) So what's the measured pKd for this one? M44 (HC-R57E,K74Q / LC-K45E) (antibody, human IgG1, kappa, V domains shown, IgG1-P238K; also called HC12/LC3) VH: QVQLVQSGAEVKKPGSSVKVSCKASGYAFTSYWMHWVRQAPGQGLEWMGQINPTTGESQYNEKFKTRVTITADQSTSTAYMELSSLRSEDTAVYYCARWGLQPFAYWGQGTLVTVSS VL: DIQMTQSPSFLSASVGDRVTITCKASQDVSTAVAWYQQKPGKAPELLIYSASYRYTGVPSRFSGSGSGTDFTLTISSLQPEDFATYYCQQHYSTPWTFGGGTKVEIKR
(A) 7.76

(Q) So what's the measured pKd for this one? M58 (HC-R67E / LC-K45Q,R54Q,R61Q) (antibody, human IgG1, kappa, V domains shown, IgG1-P238K; also called HC10/LC4) VH: QVQLVQSGAEVKKPGSSVKVSCKASGYAFTSYWMHWVRQAPGQGLEWMGQINPTTGRSQYNEKFKTEVTITADKSTSTAYMELSSLRSEDTAVYYCARWGLQPFAYWGQGTLVTVSS VL: DIQMTQSPSFLSASVGDRVTITCKASQDVSTAVAWYQQKPGKAPQLLIYSASYQYTGVPSQFSGSGSGTDFTLTISSLQPEDFATYYCQQHYSTPWTFGGGTKVEIKR
(A) 8.68
